// data source = patent US8859223B1

Biological target: BACE (Homo sapiens)
Sequence (P56817 46-501): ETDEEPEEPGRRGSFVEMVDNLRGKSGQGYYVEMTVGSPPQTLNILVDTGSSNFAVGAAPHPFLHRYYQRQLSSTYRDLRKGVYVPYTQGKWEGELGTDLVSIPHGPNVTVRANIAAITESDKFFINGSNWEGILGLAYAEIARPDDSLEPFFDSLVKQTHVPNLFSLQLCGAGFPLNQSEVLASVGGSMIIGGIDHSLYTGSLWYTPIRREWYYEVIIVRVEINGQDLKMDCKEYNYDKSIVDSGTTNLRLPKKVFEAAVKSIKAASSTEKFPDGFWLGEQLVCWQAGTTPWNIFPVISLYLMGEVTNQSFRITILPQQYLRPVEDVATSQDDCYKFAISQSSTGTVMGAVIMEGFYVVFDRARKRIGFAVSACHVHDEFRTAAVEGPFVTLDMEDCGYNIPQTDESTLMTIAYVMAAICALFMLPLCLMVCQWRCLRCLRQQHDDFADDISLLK
Test: Evaluation of peptides as BACE substrates (percent cleavage by LC-MS)
Assay type: biochemical
Conditions: 10 hr incubation with BACE enzyme, determined by LC-MS
Exercise: for every item that follows, state its recorded Percent Cleavage after 10 hr Incubation with BACE.
Answers are plain numbers, in %.

See these solved cases before continuing.
EIDL-MVLD (EIDLMVLD) [BACE substrate polypeptide] = 20
EIDL-SSHD (EIDLSSHD) [BACE substrate polypeptide] = 5
EVNL-DAHF (EVNLDAHF) [BACE substrate polypeptide] = 50
DETL-DAHF (DETLDAHF) [peptide evaluated as BACE substrate] = 1

Need Percent Cleavage after 10 hr Incubation with BACE for each of these substances.
1. EVNF-EVEF (EVNFEVEF) [BACE substrate polypeptide]
2. EVNL-SSHD (EVNLSSHD) [BACE substrate polypeptide]
3. EVNL-DAEF (EVNLDAEF) [BACE substrate polypeptide]
4. APSL-DAHF (APSLDAHF) [peptide evaluated as BACE substrate]

Result:
1: 85; 2: 3.5; 3: 50; 4: 0.5
